# measurement.description: Components of the Cytosolic LPS Sensing Pathway: Gene Identification via Genome-wide siRNA Screen;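 further: robust z of the log signal after scaling to non-targeting control siRNA wells of the plate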
# applied.conditions: RAW264.7 macrophages, IL-1a HTRF, actives lie on both sides, screened at 100 nM (by protocol), cells primed 5 h with Pam3CSK4 first
The whole screen tested about 53,000 sequences, of which about 3,700 (7%) were called active. Shown is part of a subset that was picked to be rich in actives.
reported.endpoint: z-score

record.sequence	reported.endpoint	readout.value
GGAAGAAUCGCUGCUACCGTT against Mrpl20	z-score	1.06
GCACUGUGAGUGGAUACUUTT against Slc5a3	z-score	0.13
UAAGGCCAUCUAGUGGAGATT against C8g	z-score	-0.199
CCAUCGUAUUUAACCACAUTT against Dtymk	z-score	0.206
GGCACUUCACAGACUUAGUTT against Selp	z-score	-0.682
CGAAAAGGUGUGGCCAUCATT against Eif4a3	z-score	-0.664

* * *

# measurement.description: Components of the Cytosolic LPS Sensing Pathway: Gene Identification via Genome-wide siRNA Screen;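 further: robust z of the log signal after scaling to non-targeting control siRNA wells of the plate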
# applied.conditions: RAW264.7 macrophages, IL-1a HTRF, actives lie on both sides, screened at 100 nM (by protocol), cells primed 5 h with Pam3CSK4 first
Screen size: about 53,000 sequences; about 3,700 (7%) were called active. Shown is part of a subset that was picked to be rich in actives.

record.sequence	z-score
GGAUGAAGAAACAAGAAAGTT against Tmc1	-2.46
GGAAUUAAGUCAUCAGGAATT against Slc6a5	-0.763
CCCUUUCGACAGAUUAGACTT against Zfp69	-1.23
CCAGACACGCAUUGCGAAATT against H2-M2	0.357
GGACUAUGCAGUUUUAUUGTT against Chrac1	-0.201
GGACCAGCUGAUCUCAGUATT against Olfr418	-1.94

* * *

# measurement.description: Components of the Cytosolic LPS Sensing Pathway: Gene Identification via Genome-wide siRNA Screen;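 further: robust z of the log signal after scaling to non-targeting control siRNA wells of the plate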
# applied.conditions: RAW264.7 macrophages, IL-1a HTRF, actives lie on both sides, screened at 100 nM (by protocol), cells primed 5 h with Pam3CSK4 first
Among all 53,000 sequences or so, about 3,700 (7%) were called active. The sample as a whole holds a higher share of actives than the screen did.
reported.endpoint: z-score

record.sequence	readout.value
CGGUUUUGUCAAAGCCCUGTT against Junb	0.322
GCCAGAGCUAGUUGAAUCCTT against Rce1	1.14
GGCUUGUCGUCCUGGUGUATT against Rprd2	0.219
GGGAUAAAGAUGAAGAACUTT against Tmem167b	1.31
GGAAGUGGUGGCCAUCAAGTT against Stk25	1.08
GGAGGCAUUCGCAUAGACGTT against Tra2a	1.68

* * *

# measurement.description: Components of the Cytosolic LPS Sensing Pathway: Gene Identification via Genome-wide siRNA Screen;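 further: robust z of the log signal after scaling to non-targeting control siRNA wells of the plate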
# applied.conditions: RAW264.7 macrophages, IL-1a HTRF, actives lie on both sides, screened at 100 nM (by protocol), cells primed 5 h with Pam3CSK4 first
The whole screen tested about 53,000 sequences, of which about 3,700 (7%) were called active. This is one part of a sample in which actives are shown more often than they occur.
Measured z-score of individual entries
reported.endpoint: z-score

record.sequence	reported.endpoint	readout.value
GGAAUACGAAGAGAUUAUATT against Zw10	z-score	0.65
GGCACUCCUGAUGUUCUCUTT against Cyb561d2	z-score	-2.96
GGCUCAAGAAAGUGAAUGATT against Myog	z-score	-1.14
GGAACUCCUGGAGCAGAACTT against Tbc1d10b	z-score	-2.52
GGCAGUGAAGAGAAGAAGUTT against Trub2	z-score	-0.835
GGCGAGUUUUCCUCUUCAGTT against Sync	z-score	1.08
GGACAUGUGUAAAUAAUCATT against En2	z-score	3.4
GGUAGUGGAGCUGAAUGUUTT against Kctd8	z-score	0.113
CGUUACGUAAAUCUUGUGATT against Sstr2	z-score	0.227
GGACCUUUUGUCUAUAAUGTT against Arl4c	z-score	0.759
GGCCUAUUUUUUCAUAGUUTT against Ptprs	z-score	0.0729
GCUAUUAGGAAAUGAAAGATT against Ncald	z-score	0.384
GGAAAUGUACAAGACUGAUTT against Anxa2	z-score	2.29
GGAGGCCAAGCAGAAAGAGTT against Kars	z-score	0.184
GGCACAGAAAAUCUUCAAATT against Ap2a1	z-score	0.97
GGAGUUCCUAUUUAAUCCCTT against Hoxb8	z-score	-0.419
CCUCAAUGAAGACCCAUUATT against Kif1b	z-score	-1.35
GGCAUCUGAGCUGAGGAUUTT against Gem	z-score	-0.295
CGAAGGACCAGGGAAUCUGTT against Tsg-5	z-score	-0.793
GCAACAAGUGUUGGACUCATT against Tob2	z-score	-2.04
GGAAGCAGAGCAGCUGUUUTT against Skiv2l	z-score	-0.567
GGCUGCUACUUCAGACAGCTT against Pou6f2	z-score	-0.163
GGUGGAUAGAGCAAUUGAATT against Jph1	z-score	1.5
GGAAAAAUGGCAACUUCAATT against Dock3	z-score	0.766
GGAGCUGACGUGCUACUUATT against Speg	z-score	2.6
CCCACUAAGGAGAUCAGUUTT against Lasp1	z-score	1.32

FYI, the data here is from PubChem BioAssay AID1508600.
